# measured-on: T1, human MSLN-R3 protein (human, UniProt Q13421 487-598)
# T1 construct: also called hMSLN-R3
# measurement-protocol: ELISA on coated antigen, antibody 1 nM
measured-attribute: OD450 (OD450)
Reply numerically in OD450, unit not repeated.

Query :: Which OD450 is reported for this binder? F7.33.24-H7 (scFv, not shown: small tags and cut ends, also called S009-F7.33.24 humanized antibody VH2 + VL1) scFv: EVQLVQSGAEVKKPGASVKVSCKASGYTFTSYWMHWVRQAPGQGLEWMGNVNPSNGGSNYNEKFKNRVTITVDKSASTAYMELSSLRSEDTAVYYCAPHYIGSRPGFAYWGQGTLVTVSSGGGGSGGGGSGGGGSDIVMTQSPDSLAVSLGERATINCKASQNVGTNIAWYQQKPGQSPKALIYSASYRYSGVPDRFSGSGSGTDFTLTISSLQAEDVAVYYCQQYNSYPLTFGGGTKVEIK
Result :: 0.33

Query :: Quick one: OD450 for F7.33.24-H12 (scFv, not shown: small tags and cut ends, also called S009-F7.33.24 humanized antibody VH2a + VL3) scFv: EVQLVQSGAEVKKPGASVKVSCKASGYTFTSYWMHWVRQAPGQGLEWMGNVNPSNAGSNYNEKFKNRVTITVDKSASTAYMELSSLRSEDTAVYYCAPHYIGSRPGFAYWGQGTLVTVSSGGGGSGGGGSGGGGSDIVMTQTPLSLSVTPGQPASISCKASQNVGTNIAWYQQKPGQSPQALIYSASYRYSGVPDRFSGSGSGTDFTLKISRVEAEDVGVYYCQQYNSYPLTFGGGTKVEIK ?
Result :: 0.65

Query :: Give its OD450 value. Item: F7.33.24-H10 (scFv, not shown: small tags and cut ends, also called S009-F7.33.24 humanized antibody VH2a + VL1) scFv: EVQLVQSGAEVKKPGASVKVSCKASGYTFTSYWMHWVRQAPGQGLEWMGNVNPSNAGSNYNEKFKNRVTITVDKSASTAYMELSSLRSEDTAVYYCAPHYIGSRPGFAYWGQGTLVTVSSGGGGSGGGGSGGGGSDIVMTQSPDSLAVSLGERATINCKASQNVGTNIAWYQQKPGQSPKALIYSASYRYSGVPDRFSGSGSGTDFTLTISSLQAEDVAVYYCQQYNSYPLTFGGGTKVEIK
Result :: 0.55

Query :: Record request: OD450 value, item Tab110 (scFv, not shown: small tags and cut ends, also called YP218 VH-(G4S)3-VL-his antibody; positive control) scFv: QQQLEESGGGLVKPEGSLTLTCKASGFDLGFYFYACWVRQAPGKGLEWIACIYTAGSGSTYYASWAKGRFTISKASSTTVTLQMTSLAAADTATYFCARSTANTRSTYYLNLWGPGTLVTVSSGGGGSGGGGSGGGGSDVVMTQTPASVSEPVGGTVTIKCQASQRISSYLSWYQQKPGQRPKLLIFGASTLASGVPSRFKGSGSGTEYTLTISDLECADAATYYCQSYAYFDSNNWHAFGGGTEVVV
Result :: 0.06

Query :: Value lookup for OD450; key = Tab111 (scFv, not shown: small tags and cut ends, also called YP218 VL-(G4S)3-VH-his antibody; positive control) scFv: DVVMTQTPASVSEPVGGTVTIKCQASQRISSYLSWYQQKPGQRPKLLIFGASTLASGVPSRFKGSGSGTEYTLTISDLECADAATYYCQSYAYFDSNNWHAFGGGTEVVVGGGGSGGGGSGGGGSQQQLEESGGGLVKPEGSLTLTCKASGFDLGFYFYACWVRQAPGKGLEWIACIYTAGSGSTYYASWAKGRFTISKASSTTVTLQMTSLAAADTATYFCARSTANTRSTYYLNLWGPGTLVTVSS
Result :: 0.51

Query :: # lookup: OD450 of F7.33.24-H3 (scFv, not shown: small tags and cut ends, also called S009-F7.33.24 humanized antibody VH1 + VL3) scFv: EVQLVQSGAEVKKPGASVKVSCKASGYTFTSYWMHWVRQAPGQRLEWMGNVNPSNGGSNYNEKFKNRVTITVDKSASTAYMELSSLRSEDTAVYYCAPHYIGSRPGFAYWGQGTLVTVSSGGGGSGGGGSGGGGSDIVMTQTPLSLSVTPGQPASISCKASQNVGTNIAWYQQKPGQSPQALIYSASYRYSGVPDRFSGSGSGTDFTLKISRVEAEDVGVYYCQQYNSYPLTFGGGTKVEIK
Result :: 0.89

Provenance of the data: patent US20250250357A1
